subjectOfTest: T1, TNFR1 (Homo sapiens, UniProt P19438)
T1 chain: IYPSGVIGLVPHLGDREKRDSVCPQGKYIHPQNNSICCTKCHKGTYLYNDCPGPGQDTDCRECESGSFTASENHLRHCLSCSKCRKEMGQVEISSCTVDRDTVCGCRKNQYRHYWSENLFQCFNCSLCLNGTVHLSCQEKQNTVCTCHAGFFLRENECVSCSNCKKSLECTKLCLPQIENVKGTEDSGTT
protocolSummary: yeast display SC50
Here the recorded apparent Kd (screen) is given for each entry.
Please respond with the number in nM and leave the unit unwritten.

Examples with their reported apparent Kd (screen) follow.
S1D (designed binder) DMEEEVEKAAKEYEKKKKEAIEKHLEKLKAKDKEAAERFLKELEEAAKEYAKDEAKTMSEEEAKRRAKKYKEKVLLSELSEEEQKEIKEAEEKLVRTILKYVEEAAK: 0.446
E104C (designed binder) SMEEEVEKAAKEYEKKKKEAIEKHLEKLKAKDKEAAERFLKELEEAAKEYAKDEAKTMSEEEAKRRAKKYKEKVLLSELSEEEQKEIKEAEEKLVRTILKYVECAAK: 1.27

Shifting focus to the binder that follows.
Lookup result for A35T (designed binder) SMEEEVEKAAKEYEKKKKEAIEKHLEKLKAKDKETAERFLKELEEAAKEYAKDEAKTMSEEEAKRRAKKYKEKVLLSELSEEEQKEIKEAEEKLVRTILKYVEEAAK ; measured apparent Kd (screen): 0.593
